- System: MS2 coat protein
- assayProtocol: apparent KD of MS2 coat protein; higher = weaker reporter binding
- conditionParameters: Eterna round: R107; input ligand: arginine 13.2 mM
Please enter Yes where apparent KD of MS2 coat protein is greater than or equal to 0.1 µM, and No where it is lower.

Past entries and their recorded results:
UUUUUUUUGGGAAGGAGCGGGAACAUGUGGAUCUCCCAUGUACAUGAGGAUCACCCAUGUACCCAGGUAGGUCGCCCAUUUUUUU [Exclusion - Arginine B] ... No
ACAUGAGGAUCACCCAUGUUCCUCAUUGAUACCAGUGAAUUUAGACGCCCUUGGCAGCGAGUUUAAGAAGAAGAAGUUUUUUUUU [6.C] ... Yes
GGGCCCGGGCCCGCGCGGGCCCGGGCCCAACGAGGACCGGUACGGCCGCCACUCGAACGAGUGGGUACAUGAGGAUCACCCAUGU [Baa] ... No
GACAGAAACUGAAGGAGCGAGGUAAAACGGGAUGAGCAAACAUGAGGAUCACCCAUGUGGCCUCAGGUAGGUCGCAGAAAGAAAC [Exclusion Arginine B GF24] ... Yes

## Task I'd appreciate it if you could say whether GGCCUAGCGAGCGCUCGCUAGGCCGCGGAUACCAGCGAGGUCCAUCGCCCUUGGCAGCCGAACAUGAGGAUCACCCAUGUCGGUA [#1 Same State - Theophylline A Attempt #15 (HarryS)] has apparent KD of MS2 coat protein at least equal to 0.1 µM.
## Result No
